Test protocol: Cytotoxicity against rat H42E cells assessed as release of alpha-glutathione S transferase
Assay type: cell-based
Settings: read-out: TC50 (the source's name)
Experimental endpoint: CC50 (µM)
State just the number; it will be interpreted in µM.

Data point: COc1cc2c(c(OC)c1OC)-c1ccc(SC)c(=O)cc1[C@@H](NC(=O)c1ccc(Cl)c(CO[N+](=O)[O-])c1)CC2 ; CC50 = 300

* * *

Test protocol: Cytotoxicity against rat H42E cells assessed as alteration in mitochondrial function by MTT assay
Type: cell-based
Settings: read-out: TC50 (the source's name)
Experimental endpoint: CC50 (µM)
State just the number; it will be interpreted in µM.

Data point: COc1cc2c(c(OC)c1OC)-c1ccc(SC)c(=O)cc1[C@@H](NC(=O)c1ccc(Cl)c(CO[N+](=O)[O-])c1)CC2 ; CC50 = 300
